The measured values listed here are drawn from PubChem BioAssay AID1745844.

System: rodent lifetime carcinogenesis bioassay, tumor incidence TD50
Assay: carcinogenic potency in animals, long-term in vivo studies, CPDB compilation (AID 1745844)
Settings: rat; strain Fischer 344; males; inhaled; site: kidney + liver + multiple organs + spleen; lesion: tubular-cell adenoma + tubular-cell adenocarcinoma + mononuclear-cell leukemia; dosed 103 weeks; study length 104 weeks
value kind: TD50 (mg/kg/day)
Report the figure in mg/kg/day without appending any unit label.

TD50 reading for `ClC(Cl)=C(Cl)Cl` : 90.8

----------
Tested on: rodent lifetime carcinogenesis bioassay, tumor incidence TD50
Assay: carcinogenic potency in animals, long-term in vivo studies, CPDB compilation (AID 1745844)
Details: monkey; strain Cynomolgus [Macaca fascicularis]; both sexes; in feed; site: prostate; lesion: adenocarcinoma; dosed 1238 weeks; study length 1238 weeks
value kind: TD50 (mg/kg/day)
Report the figure in mg/kg/day without appending any unit label.

Lookup result for `O=S(=O)(O)NC1CCCCC1` ; measured TD50: 35.6

----------
Test system: rodent lifetime carcinogenesis bioassay, tumor incidence TD50
Test: carcinogenic potency in animals, long-term in vivo studies, CPDB compilation (AID 1745844)
Details: rat; strain Fischer 344; males; by gavage; site: pancreatic islets; lesion: islet-cell adenoma + islet-cell carcinoma; dosed 103 weeks; study length 104 weeks
value kind: TD50 (mg/kg/day)
Quick reminder: number only, in mg/kg/day, skip the unit.

Item: `O=CCC=O` | TD50: 90.3

----------
System: rodent lifetime carcinogenesis bioassay, tumor incidence TD50
Test: carcinogenic potency in animals, long-term in vivo studies, CPDB compilation (AID 1745844)
Conditions: mouse; strain Swiss albino; females; by gavage; site: gall bladder; lesion: several types; types named in the paper; dosed 53 weeks; study length 127 weeks
value kind: TD50

So, `CC(C)C/C=N/N(C)C=O` ? Its TD50 was 28.9 mg/kg/day

----------
Test system: rodent lifetime carcinogenesis bioassay, tumor incidence TD50
Assay: carcinogenic potency in animals, long-term in vivo studies, CPDB compilation (AID 1745844)
Details: rat; strain Sprague-Dawley; females; i.p.; site: mammary gland; lesion: adenocarcinoma, NOS + cystadenocarcinoma, NOS + cystadenoma, NOS + fibroadenoma + papillary adenocarcinoma; dosed 52 weeks; study length 80 weeks
value kind: TD50

# compound `COc1cc2c(c3c1c(=O)c1ccccc1n3C)C=CC(C)(C)O2` ; its TD50 = 0.395 mg/kg/day

----------
Test system: rodent lifetime carcinogenesis bioassay, tumor incidence TD50
Assay: carcinogenic potency in animals, long-term in vivo studies, CPDB compilation (AID 1745844)
Conditions: mouse; strain B6C3F1; females; in feed; site: any site (literature study); lesion: several types; types named in the paper; dosed 78 weeks; study length 92 weeks
value kind: TD50
// return the numeric value with its unit appended

Per the record, `CCC[CH2][Sn]([CH2]CCC)([O]C(C)=O)[O]C(C)=O` has TD50 of 29.6 mg/kg/day

----------
Tested on: rodent lifetime carcinogenesis bioassay, tumor incidence TD50
Assay: carcinogenic potency in animals, long-term in vivo studies, CPDB compilation (AID 1745844)
Conditions: rat; strain Fischer 344; females; in drinking water; site: liver; lesion: hepatocellular adenoma; dosed 104 weeks; study length 104 weeks
Active and inactive are the calls of the source. No rule for the calls is given here.
value kind: TD50

So for `CN(C)N` , the logged TD50 turned out to be 184 mg/kg/day (inactive)

----------
Tested on: rodent lifetime carcinogenesis bioassay, tumor incidence TD50
Assay: carcinogenic potency in animals, long-term in vivo studies, CPDB compilation (AID 1745844)
Details: monkey; strain Rhesus [Macaca mulatta]; both sexes; in feed; site: gingiva; lesion: squamous-cell carcinoma; dosed 928 weeks; study length 1139 weeks
value kind: TD50
Form entry: enter the amount, then its unit.

// TD50 lookup, compound = `CN(N=O)C(N)=O` , result: 62.6 mg/kg/day

----------
System: rodent lifetime carcinogenesis bioassay, tumor incidence TD50
Assay: carcinogenic potency in animals, long-term in vivo studies, CPDB compilation (AID 1745844)
Conditions: mouse; strain B6C3F1; males; i.p.; site: abdominal cavity; lesion: sarcoma, NOS; dosed 51 weeks; study length 83 weeks
value kind: TD50

Entry CC(COc1ccccc1)N(CCCl)Cc1ccccc1 (stereo unspecified) ; assay system rodent lifetime carcinogenesis bioassay, tumor incidence TD50; TD50 recorded at 4.95 mg/kg/day

----------
Test system: rodent lifetime carcinogenesis bioassay, tumor incidence TD50
Test: carcinogenic potency in animals, long-term in vivo studies, CPDB compilation (AID 1745844)
Details: rat; strain Long-Evans BLU:(LE); males; in drinking water; site: any site (literature study); lesion: malignant tumor; dosed 136 weeks; study length 136 weeks
Calls of active or inactive are those of the source. No rule for the calls is given here.
value kind: TD50

The compound listed as `[O]=[W](=[O])([OH])[OH]` has a reported TD50 of 87.7 mg/kg/day (inactive)

----------
System: rodent lifetime carcinogenesis bioassay, tumor incidence TD50
Assay: carcinogenic potency in animals, long-term in vivo studies, CPDB compilation (AID 1745844)
Conditions: rat; strain Wistar; males; inhaled; site: lung; lesion: adenosquamous carcinoma; dosed 78 weeks; study length 130 weeks
value kind: TD50 (mg/kg/day)
The figure you give is taken to be in mg/kg/day; do not add the unit.

TD50 for `[Cl][Cd][Cl]` is 0.165

----------
Test system: rodent lifetime carcinogenesis bioassay, tumor incidence TD50
Experiment: carcinogenic potency in animals, long-term in vivo studies, CPDB compilation (AID 1745844)
Conditions: rat; strain Fischer 344; females; inhaled; site: nasal cavity, respiratory epithelium; lesion: adenoma; dosed 105 weeks; study length 105 weeks
value kind: TD50

Value of measured TD50 for the entry `c1ccc2ccccc2c1` : 121 mg/kg/day

// recorded TD50 for `OCc1ccco1` : 161 mg/kg/day

----------
System: rodent lifetime carcinogenesis bioassay, tumor incidence TD50
Assay: carcinogenic potency in animals, long-term in vivo studies, CPDB compilation (AID 1745844)
Conditions: rat; strain Fischer 344; males; in feed; site: body cavities + multiple organs + spleen; lesion: mesothelioma, NOS + fibrosarcoma + sarcoma, NOS; dosed 103 weeks; study length 107 weeks
value kind: TD50

For `Nc1ccccc1` the compound record lists TD50 as 263 mg/kg/day

----------
Test system: rodent lifetime carcinogenesis bioassay, tumor incidence TD50
Assay: carcinogenic potency in animals, long-term in vivo studies, CPDB compilation (AID 1745844)
Conditions: mouse; strain Swiss; females; in drinking water; site: oral cavity; lesion: squamous-cell carcinoma; dosed 78 weeks; study length 151 weeks
value kind: TD50 (mg/kg/day)
# output: bare number, implied unit mg/kg/day

Memo: `C=COC(C)=O` , reported TD50: 36000

----------
Test system: rodent lifetime carcinogenesis bioassay, tumor incidence TD50
Experiment: carcinogenic potency in animals, long-term in vivo studies, CPDB compilation (AID 1745844)
Conditions: rat; strain Sprague-Dawley; females; by gavage; site: mammary tissue, wider than the gland; lesion: malignant tumor; dosed 64 weeks; study length 104 weeks
value kind: TD50 (mg/kg/day)
Entry rule: numbers only, all in mg/kg/day.

TD50 reported for this molecule `ClCCl` : 1130

----------
Tested on: rodent lifetime carcinogenesis bioassay, tumor incidence TD50
Test: carcinogenic potency in animals, long-term in vivo studies, CPDB compilation (AID 1745844)
Conditions: rat; strain Fischer 344; males; by gavage; site: any site (literature study); lesion: several types; types named in the paper; dosed 39 weeks; study length 104 weeks
value kind: TD50 (mg/kg/day)
State just the number; it will be interpreted in mg/kg/day.

Kindly note the recorded TD50 for `O=c1ccc2ccccc2o1` , which is 210

----------
System: rodent lifetime carcinogenesis bioassay, tumor incidence TD50
Test: carcinogenic potency in animals, long-term in vivo studies, CPDB compilation (AID 1745844)
Details: rat; strain Fischer 344; males; in feed; site: tunica vaginalis; lesion: mesothelioma, NOS + mesothelioma, malignant; dosed 103 weeks; study length 104 weeks
Active and inactive are the calls of the source. How the calls were made is not given here.
Measured TD50 of individual entries

chemical structure | subject of test | TD50
O=S(=O)(O)c1cc(S(=O)(=O)O)c2c(N=Nc3ccccc3)c(O)ccc2c1 | rodent lifetime carcinogenesis bioassay, tumor incidence TD50 | 915 mg/kg/day (inactive)

From here, focus on the item given below.
The molecule identified as `NC(=O)NN=Cc1ccc([N+](=O)[O-])o1` registered its TD50 at 44 mg/kg/day

----------
System: rodent lifetime carcinogenesis bioassay, tumor incidence TD50
Test: carcinogenic potency in animals, long-term in vivo studies, CPDB compilation (AID 1745844)
Settings: mouse; strain B6C3F1; females; in feed; site: lung; lesion: alveolar/bronchiolar adenoma + alveolar/bronchiolar carcinoma; dosed 103 weeks; study length 111 weeks
value kind: TD50 (mg/kg/day)
All answers are understood in mg/kg/day, so give the number only.

# lookup: `Nc1cc(Cl)c(N)c(Cl)c1` on rodent lifetime carcinogenesis bioassay, tumor incidence TD50, TD50 = 42100

----------
Tested on: rodent lifetime carcinogenesis bioassay, tumor incidence TD50
Test: carcinogenic potency in animals, long-term in vivo studies, CPDB compilation (AID 1745844)
Conditions: mouse; strain CDF1; females; in feed; site: liver; lesion: hepatocellular carcinoma; dosed 91 weeks; study length 91 weeks
value kind: TD50

Record `Cc1cc2ncccc2c2nc(N)n(C)c12` . Reported TD50: 65.6 mg/kg/day
